- System: DeltatarO mutant
- assayProcedure: S. aureus survival, RN4220 and DeltatarO strains – OD600, teichoic acid synthesis inhibitors, primary screen (AID 463173)
- recordedConditions: S. aureus RN4220 wild type/DeltatarO growth, OD600, 18 h, screened at 18.75 µg/mL (by protocol)
Among all 52,000 compounds or so, about 4,300 (8.3%) were called active. Rule as the data show it: active = survival mostly below about 52% (no sharp cut-off); inactive = mostly above about 56%. Shown is part of a subset that was picked to be rich in actives.
Outcomes: active, inactive

- molecule: "CCOC(=O)N1CCC(NC(=O)c2cnn(-c3ccccc3)c2C2CCN(C(=O)OC(C)(C)C)CC2)CC1"
  classLabel: "inactive"
- molecule: "COC(=O)c1c(C)sc(-c2c(-c3ccc4c(c3)OCCO4)[nH]c3c2c(=O)[nH]c(=O)n3C)c1O"
  classLabel: "active"
- molecule: "CCc1nn(CC(=O)Nc2ccc(N(CC)CC)cc2C)c(=O)c2cc3sccc3n12"
  classLabel: "inactive"
- molecule: "Cc1ccccc1Nc1c(-c2ccncc2)nc2ccc(Cl)cn12"
  classLabel: "inactive"
- molecule: "COC(=O)c1c(C)sc(-c2c(-c3ccc(F)cc3)[nH]c3[nH]c(=O)[nH]c(=O)c23)c1O"
  classLabel: "inactive"
- molecule: "CCc1ccc(-c2[nH]c3c(c2-c2sc(C)c(C(=O)OC)c2O)c(=O)n(C)c(=O)n3C)cc1"
  classLabel: "inactive"
- molecule: "Cc1ccccc1Nc1c(-c2cccc(O)c2)nc2ccc(Br)cn12"
  classLabel: "inactive"
- molecule: "Cc1ccccc1Nc1c(-c2ccc(Br)o2)nc2ccc(Cl)cn12"
  classLabel: "active"
- molecule: "CC(CNC(=O)CCc1cn(Cc2ccccc2Cl)c2ccccc12)c1ccccc1 (stereo not given)"
  classLabel: "inactive"
- molecule: "COc1cc(O)ccc1-c1nc2ccc(Br)cn2c1Nc1ccccc1C"
  classLabel: "active"
